System: NCI-H1993
Measurement protocol: relative viability (nuclei count vs DMSO), 5 days (fraction); higher = more cells survive
Condition info: first compound 0.01 µM
Provide the recorded relative viability for the entries that follow.
Just the number, please.

Provide relative viability value for the following compound: Cc1cn(-c2cc(NC(=O)c3ccc(C)c(Nc4nccc(-c5cccnc5)n4)c3)cc(C(F)(F)F)c2)cn1 [Nilotinib] + NC(=O)Nc1cc(-c2cccc(F)c2)sc1C(=O)N[C@H]1CCCNC1 [AZD7762] (partner 0.2 µM)
0.819

Respond only with relative viability recorded for Cc1cn(-c2cc(NC(=O)c3ccc(C)c(Nc4nccc(-c5cccnc5)n4)c3)cc(C(F)(F)F)c2)cn1 [Nilotinib] + COc1cc2c(Oc3ccc(NC(=O)C4(C(=O)Nc5ccc(F)cc5)CC4)cc3F)ccnc2cc1OCCCN1CCOCC1 [Foretinib] (partner 0.25 µM)
0.989

Quick one: give measured relative viability for Cc1cn(-c2cc(NC(=O)c3ccc(C)c(Nc4nccc(-c5cccnc5)n4)c3)cc(C(F)(F)F)c2)cn1 [Nilotinib] + COc1cccc2cc(-c3nc([C@H]4CC[C@H](C(=O)O)CC4)n4ncnc(N)c34)[nH]c12 [OSI-027] (partner 0.5 µM)
0.536

Determine its reported relative viability: Cc1cn(-c2cc(NC(=O)c3ccc(C)c(Nc4nccc(-c5cccnc5)n4)c3)cc(C(F)(F)F)c2)cn1 [Nilotinib] + O=C(CCCCCCC(=O)Nc1ccccc1)NO [Vorinostat] (partner 1 µM)
0.843

* * *

Tested on: NCI-H2126
Measurement protocol: relative viability (nuclei count vs DMSO), 5 days (fraction); higher = more cells survive
Condition info: first compound 0.01 µM
So I've got a bunch of molecules here, and I need their relative viability values.

Specify measured relative viability for Cc1cn(-c2cc(NC(=O)c3ccc(C)c(Nc4nccc(-c5cccnc5)n4)c3)cc(C(F)(F)F)c2)cn1 [Nilotinib] + C[C@]1(O)C[C@@H](c2nc(-c3ccc4ccc(-c5ccccc5)nc4c3)c3c(N)nccn32)C1 [Linsitinib] (partner 1 µM) .
0.827

Find the measured relative viability of Cc1cn(-c2cc(NC(=O)c3ccc(C)c(Nc4nccc(-c5cccnc5)n4)c3)cc(C(F)(F)F)c2)cn1 [Nilotinib] + C[C@@H](Oc1cc(-c2cnn(C3CCNCC3)c2)cnc1N)c1c(Cl)ccc(F)c1Cl [Crizotinib] (partner 1 µM) and report it.
1.39

Output measured relative viability for this item: Cc1cn(-c2cc(NC(=O)c3ccc(C)c(Nc4nccc(-c5cccnc5)n4)c3)cc(C(F)(F)F)c2)cn1 [Nilotinib] + Nc1nc2[nH]cc(CCc3ccc(C(=O)N[C@@H](CCC(=O)O)C(=O)O)cc3)c2c(=O)[nH]1 [Pemetrexed] (partner 0.2 µM)
0.79

Hello, please tell me recorded relative viability for this one: Cc1cn(-c2cc(NC(=O)c3ccc(C)c(Nc4nccc(-c5cccnc5)n4)c3)cc(C(F)(F)F)c2)cn1 [Nilotinib] + Cc1cc(Nc2cc(N3CCN(C)CC3)nc(Sc3ccc(NC(=O)C4CC4)cc3)n2)n[nH]1 [Tozasertib] (partner 0.1 µM)
0.963

* * *

Test system: HCC-827
Measurement protocol: relative viability (nuclei count vs DMSO), 5 days (fraction); higher = more cells survive
Condition info: first compound 0.02 µM
The label yes is reserved for relative viability strictly under 0.5; no covers values equal to or above it.

Dear colleague, could you confirm whether relative viability of CN1CCN(CCOc2cc(OC3CCOCC3)c3c(Nc4c(Cl)ccc5c4OCO5)ncnc3c2)CC1 [Saracatinib] + C[C@]1(O)C[C@@H](c2nc(-c3ccc4ccc(-c5ccccc5)nc4c3)c3c(N)nccn32)C1 [Linsitinib] (partner 1 µM) falls below 0.5? Thanks.
no

In plain terms, does CN1CCN(CCOc2cc(OC3CCOCC3)c3c(Nc4c(Cl)ccc5c4OCO5)ncnc3c2)CC1 [Saracatinib] + COc1cc2c(Oc3ccc(NC(=O)C4(C(=O)Nc5ccc(F)cc5)CC4)cc3F)ccnc2cc1OCCCN1CCOCC1 [Foretinib] (partner 0.25 µM) come in under 0.5 for relative viability?
no

Bench note: check whether CCNC(=O)c1noc(-c2cc(C(C)C)c(O)cc2O)c1-c1ccc(CN2CCOCC2)cc1 [Luminespib] + Cc1nc(Nc2ncc(C(=O)Nc3c(C)cccc3Cl)s2)cc(N2CCN(CCO)CC2)n1 [Dasatinib] (partner 0.075 µM) shows relative viability below 0.5
yes

For CCNC(=O)c1noc(-c2cc(C(C)C)c(O)cc2O)c1-c1ccc(CN2CCOCC2)cc1 [Luminespib] + CC1(C)CCC(c2ccc(Cl)cc2)=C(CN2CCN(c3ccc(C(=O)NS(=O)(=O)c4ccc(N[C@H](CCN5CCOCC5)CSc5ccccc5)c(S(=O)(=O)C(F)(F)F)c4)cc3)CC2)C1 [Navitoclax] (partner 0.5 µM) , is the recorded relative viability below the cut-off of 0.5?
no

Say whether its relative viability is strictly beneath 0.5. Entry: CCNC(=O)c1noc(-c2cc(C(C)C)c(O)cc2O)c1-c1ccc(CN2CCOCC2)cc1 [Luminespib] + Cc1cc(Nc2cc(N3CCN(C)CC3)nc(Sc3ccc(NC(=O)C4CC4)cc3)n2)n[nH]1 [Tozasertib] (partner 0.1 µM)
yes

Item CCNC(=O)c1noc(-c2cc(C(C)C)c(O)cc2O)c1-c1ccc(CN2CCOCC2)cc1 [Luminespib] + C[C@@H](Oc1cc(-c2cnn(C3CCNCC3)c2)cnc1N)c1c(Cl)ccc(F)c1Cl [Crizotinib] (partner 1 µM) : relative viability beneath 0.5, strictly?
no

Please check: relative viability for CN1CCN(CCOc2cc(OC3CCOCC3)c3c(Nc4c(Cl)ccc5c4OCO5)ncnc3c2)CC1 [Saracatinib] + COc1cccc2cc(-c3nc([C@H]4CC[C@H](C(=O)O)CC4)n4ncnc(N)c34)[nH]c12 [OSI-027] (partner 0.5 µM) , strictly under 0.5 or not?
no

* * *

So I've got a bunch of compounds here, and I need their relative viability values.
System: NCI-H1437
Measurement protocol: relative viability (nuclei count vs DMSO), 5 days (fraction); higher = more cells survive
Condition info: first compound 2 µM

Consider the compound CN1CCN(CCOc2cc(OC3CCOCC3)c3c(Nc4c(Cl)ccc5c4OCO5)ncnc3c2)CC1 [Saracatinib] + Nc1ncn([C@H]2C[C@H](O)[C@@H](CO)O2)c(=O)n1 [Decitabine] (partner 2 µM) and give its recorded relative viability.
0.622

Input CN1CCN(CCOc2cc(OC3CCOCC3)c3c(Nc4c(Cl)ccc5c4OCO5)ncnc3c2)CC1 [Saracatinib] + O=C(c1cc(Cc2n[nH]c(=O)c3ccccc23)ccc1F)N1CCN(C(=O)C2CC2)CC1 [Olaparib] (partner 8 µM) , output reported relative viability.
0.658

Using the record for Cc1csc(=NC2CCCCC2)n1/N=C/c1ccc(O)c(O)c1O [MIM1] + N=C(N)NC(=N)NCCc1ccccc1 [Phenformin] (partner 250 µM) , state its measured relative viability.
0.244

Provide only the value of recorded relative viability for Cc1csc(=NC2CCCCC2)n1/N=C/c1ccc(O)c(O)c1O [MIM1] + Cc1nc(NC(=O)N2CCC[C@H]2C(N)=O)sc1-c1ccnc(C(C)(C)C(F)(F)F)c1 [Alpelisib] (partner 2 µM)
0.959

Look up and state reported relative viability for Cc1csc(=NC2CCCCC2)n1/N=C/c1ccc(O)c(O)c1O [MIM1] + O=C(CCCCCCC(=O)Nc1ccccc1)NO [Vorinostat] (partner 1 µM)
0.833

* * *

Tested on: NCI-H358
Measurement protocol: relative viability (nuclei count vs DMSO), 5 days (fraction); higher = more cells survive
Condition info: first compound 0.02 µM
Note: every record was labeled by where its relative viability sits among bucket 1 (below 0.4), bucket 2 (0.4 to below 0.6), bucket 3 (0.6 or more)

Would you mind sorting CN1CCN(CCOc2cc(OC3CCOCC3)c3c(Nc4c(Cl)ccc5c4OCO5)ncnc3c2)CC1 [Saracatinib] + O=C(c1cc(Cc2n[nH]c(=O)c3ccccc23)ccc1F)N1CCN(C(=O)C2CC2)CC1 [Olaparib] (partner 8 µM) into the appropriate category?
bucket 2

Exam item: assign CN1CCN(CCOc2cc(OC3CCOCC3)c3c(Nc4c(Cl)ccc5c4OCO5)ncnc3c2)CC1 [Saracatinib] + Nc1nc2[nH]cc(CCc3ccc(C(=O)N[C@@H](CCC(=O)O)C(=O)O)cc3)c2c(=O)[nH]1 [Pemetrexed] (partner 0.2 µM) to the correct category.
bucket 1

Kindly state the category for this compound: CCNC(=O)c1noc(-c2cc(C(C)C)c(O)cc2O)c1-c1ccc(CN2CCOCC2)cc1 [Luminespib] + COc1cccc2cc(-c3nc([C@H]4CC[C@H](C(=O)O)CC4)n4ncnc(N)c34)[nH]c12 [OSI-027] (partner 0.5 µM)
bucket 1

Which class holds CCNC(=O)c1noc(-c2cc(C(C)C)c(O)cc2O)c1-c1ccc(CN2CCOCC2)cc1 [Luminespib] + CC(=O)Nc1cccc(-n2c(=O)n(C3CC3)c(=O)c3c(Nc4ccc(I)cc4F)n(C)c(=O)c(C)c32)c1 [Trametinib] (partner 0.02 µM) ?
bucket 1

Which class is correct for the following compound? CCNC(=O)c1noc(-c2cc(C(C)C)c(O)cc2O)c1-c1ccc(CN2CCOCC2)cc1 [Luminespib] + C[C@]1(O)C[C@@H](c2nc(-c3ccc4ccc(-c5ccccc5)nc4c3)c3c(N)nccn32)C1 [Linsitinib] (partner 1 µM)
bucket 3

Sort CCNC(=O)c1noc(-c2cc(C(C)C)c(O)cc2O)c1-c1ccc(CN2CCOCC2)cc1 [Luminespib] + CS(=O)(=O)CCNCc1ccc(-c2ccc3ncnc(Nc4ccc(OCc5cccc(F)c5)c(Cl)c4)c3c2)o1 [Lapatinib] (partner 2 µM) into one of the categories.
bucket 1

Which bin, given its relative viability, does CCNC(=O)c1noc(-c2cc(C(C)C)c(O)cc2O)c1-c1ccc(CN2CCOCC2)cc1 [Luminespib] + O=C(c1cc(Cc2n[nH]c(=O)c3ccccc23)ccc1F)N1CCN(C(=O)C2CC2)CC1 [Olaparib] (partner 8 µM) occupy?
bucket 2

Bin? CN1CCN(CCOc2cc(OC3CCOCC3)c3c(Nc4c(Cl)ccc5c4OCO5)ncnc3c2)CC1 [Saracatinib] + CS(=O)(=O)CCNCc1ccc(-c2ccc3ncnc(Nc4ccc(OCc5cccc(F)c5)c(Cl)c4)c3c2)o1 [Lapatinib] (partner 2 µM)
bucket 2

Please classify: CCNC(=O)c1noc(-c2cc(C(C)C)c(O)cc2O)c1-c1ccc(CN2CCOCC2)cc1 [Luminespib] + Cc1nc(NC(=O)N2CCC[C@H]2C(N)=O)sc1-c1ccnc(C(C)(C)C(F)(F)F)c1 [Alpelisib] (partner 2 µM)
bucket 3
